The reported numbers originate from patent US6288261A.

target: recombinant truncated stromelysin (human sequence) (Homo sapiens); experiment: Determination of Stromelysin Inhibition; details: recombinant truncated human stromelysin produced in E. coli
Sequence (P08254 100-273 limits assumed): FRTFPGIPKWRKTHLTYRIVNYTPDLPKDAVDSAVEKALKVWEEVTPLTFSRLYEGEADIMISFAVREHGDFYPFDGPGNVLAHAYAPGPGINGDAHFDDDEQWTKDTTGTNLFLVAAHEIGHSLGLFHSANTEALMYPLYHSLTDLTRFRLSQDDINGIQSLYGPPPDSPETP
EXPERIMENTAL ENDPOINT: IC50 (µM)
One number for each entry, in µM.

>  <SMILES DATA>
O=C(NO)c1c(CCS(=O)(=O)c2ccc(-c3ccc(Cl)cc3)cc2)ccc2ccccc12

>  <UNIT ABBREVIATION>
µM

>  <IC50>
3.7

$$$$
>  <SMILES DATA>
COc1ccc(-c2ccc(S(=O)(=O)CCCc3ccc4ccccc4c3C(=O)NO)cc2)cc1

>  <UNIT ABBREVIATION>
µM

>  <IC50>
0.4

$$$$
>  <SMILES DATA>
O=C(NO)c1c(OCCS(=O)(=O)c2ccc(-c3ccc(Cl)cc3)cc2)ccc2ccccc12

>  <UNIT ABBREVIATION>
µM

>  <IC50>
0.67

$$$$
>  <SMILES DATA>
COc1ccc(-c2ccc(C(=O)CCCc3ccc4ccccc4c3C(=O)NO)cc2)cc1

>  <UNIT ABBREVIATION>
µM

>  <IC50>
1.5

$$$$
>  <SMILES DATA>
O=C(NO)c1c(CCOc2ccc(-c3ccc(Cl)cc3)cc2)ccc2ccccc12

>  <UNIT ABBREVIATION>
µM

>  <IC50>
0.64

$$$$

Batch request: IC50 for each of the following molecules.
1. COc1ccc(-c2ccc(C(=O)CCc3ccc4ccccc4c3C(=O)NO)cc2)cc1
2. COc1ccc(-c2ccc(S(=O)(=O)CCOc3ccc4ccccc4c3C(=O)NO)cc2)cc1
3. O=C(NO)c1c(CNS(=O)(=O)c2ccc(-c3ccc(OC(F)(F)F)cc3)cc2)ccc2ccccc12
4. N#CCc1cccc(-c2ccc(S(=O)(=O)CCOc3ccc4ccccc4c3C(=O)NO)cc2)c1

1. 0.45
2. 0.46
3. 0.69
4. 0.062
